Cited source for all entries: the supplement of paper PMC6757056

B1: library; a variant is named by its letters at N, in order (parent)
chain: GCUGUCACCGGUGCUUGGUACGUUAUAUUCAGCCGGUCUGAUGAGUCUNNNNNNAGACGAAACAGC

Variants of: B1
Assay: FACS-Seq fitted mean relative fluorescence mCherry/BFP without ligand (log10 relative fluorescence); HEK293T overexpressing SLC46A1; higher = higher reporter protein expression
Details: without (6R,S)-folinic acid; ligand present: no
Cut-off 0.4 on FACS-Seq fitted mean (log10), inclusive. At or above means 1.0; below means 0.0.

Sample answers from the record:
State whether the measured FACS-Seq fitted mean (log10) reaches 0.4, counting equality as reaching it, for `GCCUUA`
0.0

Could you please find out whether `UAUACG` has FACS-Seq fitted mean (log10) that meets 0.4 or exceeds it?
1.0

Please check the record `GAAAAU` and state if its FACS-Seq fitted mean (log10) is at or above 0.4.
1.0

Is FACS-Seq fitted mean (log10) for `AUGAGC` at or above 0.4?
0.0

Please examine the following record next.
Please check the record `AAAAAG` and state if its FACS-Seq fitted mean (log10) is at or above 0.4.
1.0
